Test system: 242566-281-R-J2-PDC complex spheroid viability
Experiment: Anticancer human tumor 242566-281-R-J2-PDC patient-derived pancreatic carcinoma cell line growth inhibition [RAS]
Settings: curve of first compound; second compound 0.0949 µM
pIC50: −log10 of the molar value.
PROPERTY LABEL: pIC50

// worked examples, pIC50 included
COMPOUND	pIC50
CC1(C)CCC(Nc2ncc(C(F)(F)F)c(-c3c[nH]c4c(P(C)(C)=O)c(C#N)ccc34)n2)CN1 (stereo not given) + CCn1c(-c2cc(N3CCN(C)CC3)cnc2C(C)OC)c2c3cc(ccc31)-c1csc(n1)CC(NC(=O)C1CC1C)C(=O)N1CCCC(N1)C(=O)OCC(C)(C)C2	> 9.02
C=CC(=O)N1CCN(c2nc(OCC3CCCN3C)nc3c(F)c(-c4nc(N)cc(C)c4C(F)(F)F)c(Cl)cc23)C(C)C1 (stereo not given) + CCn1c(-c2cccnc2C(C)OC)c2c3cc(ccc31)N1CCOC(CC(NC(=O)C(C(C)C)N(C)C(=O)C3(F)CCN(C(=O)C#CC(C)(C)N(C)C)CC3)C(=O)N3CCCC(N3)C(=O)OCC(C)(C)C2)C1	< 6.00
CC(=O)OC12COC1CC(O)C1(C)C(=O)C(O)C3=C(C)C(OC(=O)C(O)C(NC(=O)OC(C)(C)C)c4ccccc4)CC(O)(C(OC(=O)c4ccccc4)C21)C3(C)C (stereo not given) + CCn1c(-c2cccnc2C(C)OC)c2c3cc(ccc31)N1CCOC(CC(NC(=O)C(C(C)C)N(C)C(=O)C3(F)CCN(C(=O)C#CC(C)(C)N(C)C)CC3)C(=O)N3CCCC(N3)C(=O)OCC(C)(C)C2)C1	> 7.50
CC(Nc1ccc2c(c1)OCCn1cc(N3C(=O)OCC3C(F)F)nc1-2)C(N)=O (stereo not given) + CCn1c(-c2cc(N3CCN(C)CC3)cnc2C(C)OC)c2c3cc(ccc31)-c1csc(n1)CC(NC(=O)C1CC1C)C(=O)N1CCCC(N1)C(=O)OCC(C)(C)C2	> 7.50

Okay, now this compound:
Note to self: pIC50 recorded for O=C(c1ccc(F)c(F)c1Nc1ccc(I)cc1F)N1CC(O)([C@@H]2CCCCN2)C1 + CCn1c(-c2cccnc2C(C)OC)c2c3cc(ccc31)N1CCOC(CC(NC(=O)C(C(C)C)N(C)C(=O)C3(F)CCN(C(=O)C#CC(C)(C)N(C)C)CC3)C(=O)N3CCCC(N3)C(=O)OCC(C)(C)C2)C1 was 7.04

---

System: 242566-281-R-J2-PDC complex spheroid viability
Assay: Anticancer human tumor 242566-281-R-J2-PDC cell line growth inhibition [RAS];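 note: spheroids exposed to compound for 7 days before readout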;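 for viability, T/C: 100% = DMSO vehicle control wells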
Conditions: second compound 0.0949 µM; first compound 0.00316 µM; stronger effect = lower value
Threshold check on viability, T/C: strictly below 90% is MET; on or above 90% is NOT MET.

// below: answered compounds
COMPOUND	CLASS LABEL
CC(C)n1nc(-c2ccc3oc(N)nc3c2)c2c(N)ncnc21 + CCn1c(-c2cccnc2C(C)OC)c2c3cc(ccc31)N1CCOC(CC(NC(=O)C(C(C)C)N(C)C(=O)C3(F)CCN(C(=O)C#CC(C)(C)N(C)C)CC3)C(=O)N3CCCC(N3)C(=O)OCC(C)(C)C2)C1	MET
C=CC(=O)Nc1cc(Nc2nccc(-c3cn(C)c4ccccc34)n2)c(OC)cc1N(C)CCN(C)C + CCn1c(-c2cccnc2C(C)OC)c2c3cc(ccc31)N1CCOC(CC(NC(=O)C(C(C)C)N(C)C(=O)C3(F)CCN(C(=O)C#CC(C)(C)N(C)C)CC3)C(=O)N3CCCC(N3)C(=O)OCC(C)(C)C2)C1	NOT MET
CCN1CCN(Cc2ccc(Nc3ncc(F)c(-c4cc(F)c5nc(C)n(C(C)C)c5c4)n3)nc2)CC1 + CCn1c(-c2cccnc2C(C)OC)c2c3cc(ccc31)N1CCOC(CC(NC(=O)C(C(C)C)N(C)C(=O)C3(F)CCN(C(=O)C#CC(C)(C)N(C)C)CC3)C(=O)N3CCCC(N3)C(=O)OCC(C)(C)C2)C1	MET
Nc1ccn(C2OC(CO)C(O)C2(F)F)c(=O)n1 (stereo not drawn) + CCn1c(-c2cc(N3CCN(C)CC3)cnc2C(C)OC)c2c3cc(ccc31)-c1csc(n1)CC(NC(=O)C1CC1C)C(=O)N1CCCC(N1)C(=O)OCC(C)(C)C2	MET
O=C(c1ccc(F)c(F)c1Nc1ccc(I)cc1F)N1CC(O)([C@@H]2CCCCN2)C1 + CCn1c(-c2cccnc2C(C)OC)c2c3cc(ccc31)N1CCOC(CC(NC(=O)C(C(C)C)N(C)C(=O)C3(F)CCN(C(=O)C#CC(C)(C)N(C)C)CC3)C(=O)N3CCCC(N3)C(=O)OCC(C)(C)C2)C1	NOT MET

Q: In the record for Nc1ccn(C2OC(CO)C(O)C2(F)F)c(=O)n1 (stereo not drawn) + CCn1c(-c2cccnc2C(C)OC)c2c3cc(ccc31)N1CCOC(CC(NC(=O)C(C(C)C)N(C)C(=O)C3(F)CCN(C(=O)C#CC(C)(C)N(C)C)CC3)C(=O)N3CCCC(N3)C(=O)OCC(C)(C)C2)C1 , is viability, T/C less than 90%?
A: MET

Q: In the record for CC(C)n1nc(-c2ccc3oc(N)nc3c2)c2c(N)ncnc21 + CCn1c(-c2cc(N3CCN(C)CC3)cnc2C(C)OC)c2c3cc(ccc31)-c1csc(n1)CC(NC(=O)C1CC1C)C(=O)N1CCCC(N1)C(=O)OCC(C)(C)C2 , is viability, T/C less than 90%?
A: MET

Q: In the record for C=CC(=O)N1CCN(c2nc(OCC3CCCN3C)nc3c(F)c(-c4nc(N)cc(C)c4C(F)(F)F)c(Cl)cc23)C(C)C1 (stereo not drawn) + CCn1c(-c2cccnc2C(C)OC)c2c3cc(ccc31)N1CCOC(CC(NC(=O)C(C(C)C)N(C)C(=O)C3(F)CCN(C(=O)C#CC(C)(C)N(C)C)CC3)C(=O)N3CCCC(N3)C(=O)OCC(C)(C)C2)C1 , is viability, T/C less than 90%?
A: MET
